- System: Micrococcus luteus ATCC 4698
Attribute: MIC
Give just the numeric value; µg/mL need not be written.

Reference set, count: 3
# Compound, MIC [µg/mL]
measured = [
    ("CC[C@H]1OC(=O)[C@H](C)C(=O)[C@H](C)[C@@H](O[C@@H]2O[C@H](C)C[C@H](N(C)C)[C@H]2O)[C@@]2(C)C[C@@H](C)C(=O)[C@H](C)[C@H]3N(CCNC(=O)c4ccccc4C=CCO2)C(=O)O[C@]13C", 0.39),
    ("CC[C@H]1OC(=O)[C@H](C)[C@@H](O[C@H]2C[C@@](C)(OC)[C@@H](O)[C@H](C)O2)[C@H](C)[C@@H](O[C@@H]2O[C@H](C)C[C@H](N(C)C)[C@H]2O)[C@@]2(C)C[C@@H](C)C(=O)[C@H](C)[C@H]3N(CCNC(=O)c4ccccc4CC=CCO2)C(=O)O[C@]13C", 1.56),
    ("CC[C@H]1OC(=O)[C@H](C)[C@@H](O[C@H]2C[C@@](C)(OC)[C@@H](O)[C@H](C)O2)[C@H](C)[C@@H](O[C@@H]2O[C@H](C)C[C@H](N(C)C)[C@H]2O)[C@@]2(C)C[C@@H](C)C(=O)[C@H](C)[C@H]3N(CCC=CCO2)C(=O)O[C@]13C", 0.1),
]

Value sought: MIC, system Micrococcus luteus ATCC 4698, item CC[C@H]1OC(=O)[C@H](C)[C@@H](O[C@H]2C[C@@](C)(OC)[C@@H](O)[C@H](C)O2)[C@H](C)[C@@H](O[C@@H]2O[C@H](C)C[C@H](N(C)C)[C@H]2O)[C@](C)(O)C[C@@H](C)C(=O)[C@H](C)[C@@H](O)[C@]1(C)O [Ery. A, Erythromycin A, reference compound] . Result: 0.2
